These entries and their values trace back to paper PMC5114558.

Overview of reported Kd across a group of binders:
- SUBJECT_OF_TEST: T1, ING2-PHD
- T1 chain: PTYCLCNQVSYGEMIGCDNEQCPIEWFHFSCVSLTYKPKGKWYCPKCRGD
- EXPERIMENT_SUMMARY: FP
No end group written: not given here.
Your answer should be a plain number; it is taken to be in µM.

Given RKQLATK(Me3)AARKSAPAT (also: fluorescein label, end not given here) [H3 (17-32) K23me3 peptide, fluorescein-labelled] , respond with its Kd.
257

Now for another entry.
Quote Kd reported for ARTK(Me3)QTARKSTGGK (also: fluorescein label, end not given here) [H3K4me3 peptide, fluorescein-labelled] please.
5.8
